# Test system: RARg:RXRa (NR concentration 270 nM, RXRa partner concentration 90 nM)
# Experiment Description: PBM binding z-score (relative to random genomic background probes); higher = stronger binding; sequences stand for … in GC…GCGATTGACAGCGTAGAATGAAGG
Entries annotated with measured PBM binding z-score
Measured Quantity: PBM binding z-score

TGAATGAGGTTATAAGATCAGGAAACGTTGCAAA    1.61
GGAACGAGGGCATTCGTGTTGATAGCATGGCGAT    0.848
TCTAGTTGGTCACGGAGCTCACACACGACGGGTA    1.04
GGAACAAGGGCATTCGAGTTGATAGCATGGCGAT    1.21
GTGCCAAGGTGAATAGGTCGTTGATGAGTAGGCG    2.61
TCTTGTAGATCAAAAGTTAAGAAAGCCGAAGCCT    0.0681

---

Entries annotated with measured PBM binding z-score
# Test system: RXRa DBDmut IVT, anti-RXR (DBD mutation: RXRa K156A/R161A, NR concentration 90 nM)
# Experiment Description: PBM binding z-score (relative to random genomic background probes); higher = stronger binding; sequences stand for … in GC…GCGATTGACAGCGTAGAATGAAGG
Measured Quantity: PBM binding z-score

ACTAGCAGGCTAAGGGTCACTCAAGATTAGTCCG    0.904
CGAACTAGGTCAAGGACAGTTAATCTCCGCACGC    1.65
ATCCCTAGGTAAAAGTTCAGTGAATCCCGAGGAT    0.406
AGTCAAAGTTCACTAGGTAACGCAAGATTCAGCT    4.25
GGATCGAGGGCAAAGTTGATAGCATCTGTCGACG    2.4
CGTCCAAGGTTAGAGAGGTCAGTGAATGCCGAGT    1.67

---

# Tested on: LXRb:RXRa (NR concentration 270 nM, RXRa partner concentration 90 nM)
# Experiment Description: PBM binding z-score (relative to random genomic background probes); higher = stronger binding; sequences stand for … in GC…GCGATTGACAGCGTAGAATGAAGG
Output 1 for PBM binding z-score not less than 1; output 0 otherwise.

CCTACTGGGCCAAAGGTCATTGAGTCCAATGCTC    1
ACTTGCAGGCCAAGGGTCACTCAAGATTAGTCCG    1
ACTAGTTCGTCAGCTGAGGTCACACACAATTCGG    1
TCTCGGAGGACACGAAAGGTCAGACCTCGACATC    1
CCTGCTAGGTCATGGGCAGCTAATCTACAGTATG    1
GATACAGGGTCAAGGCCAGAGAACGCGTATTGAT    1
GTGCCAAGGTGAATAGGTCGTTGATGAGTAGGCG    0
ATCGGAAGGTCGAAGGTGAGTATACCCACCCGAA    1
AGAACGAGGTTAAGATCAGGGAAACAGAATACAT    1
CGAACTAGGTCAGAACAGCACAGTGAAGGATGAT    0
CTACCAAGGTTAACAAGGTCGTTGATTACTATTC    1
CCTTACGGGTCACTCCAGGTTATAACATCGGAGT    1
CCTTACGGGTCAAGGTTATAGGACGGGTGGTACG    1
AACTCTAGGTAAAGTTCAGTGAAAGATCGATAGA    1
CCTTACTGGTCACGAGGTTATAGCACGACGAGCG    1
GATACAGGGTCAGCTAGATGCCAGAGTATGGAAA    1
CCGACTGCGGCAGAAAGGTTACCATACCATCCGG    1
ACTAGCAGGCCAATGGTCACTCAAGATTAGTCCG    0
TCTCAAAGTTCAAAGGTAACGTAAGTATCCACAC    1
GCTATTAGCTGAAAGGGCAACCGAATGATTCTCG    0
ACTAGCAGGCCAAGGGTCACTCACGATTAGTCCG    1
TCTTGTAGATCAGCAGGTTAAGAAAGCTGGCCAA    0
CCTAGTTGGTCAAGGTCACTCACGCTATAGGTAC    1
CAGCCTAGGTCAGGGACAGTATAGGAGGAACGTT    0
TCTATTAGTTTAAGGGCAACCGACGAGTCCGTTT    1
ATCGAAAGGACGAGGTGAGTATAGAGAAAGGGAA    0
